Cited source for all entries: PubChem BioAssay (NCI)

Assignment: determine reported growth for the given compounds.
# System: U251 CNS
# experimental.details: NCI-60 one-dose screen, 48 h (100 = growth as untreated, 0 = no growth, -100 = all killed)
# recorded.conditions: 10 µM unless noted
The panel holds about 83,000 compounds, 20% with a hit somewhere; the sample as a whole holds those more often.
Write the value in % as a bare number.

// output growth; input CN(C)C1CCC(NC2=CC(=O)C=CC2=O)CC1 (stereo unspecified) ; system U251 CNS
111

// output growth; input CN1CCN(c2ccc3cc(-c4nc5ccccc5[nH]4)c(=O)oc3c2)CC1 ; system U251 CNS
99.3

// output growth; input CCO/C=N/NC(=O)c1ccncc1 ; system U251 CNS
105

// output growth; input COc1ccc(/C(=N\O)c2cc(OC)c(OC)c(OC)c2)c(OC)c1N ; system U251 CNS
18.3

// output growth; input O=C(Nc1cccc(C(F)(F)F)c1)Nc1ccc(OCc2nnc(-c3ccccc3)o2)c(F)c1 ; system U251 CNS
29.5

// output growth; input CCN(CC)CCCNc1nc(C)cc(Nc2ccc3nc(C)cc(N)c3c2)n1 ; system U251 CNS
100

// output growth; input CC1CCc2c(sc(NC(=O)CSc3nnc4ccccn34)c2C(N)=O)C1 (stereo unspecified) ; system U251 CNS
108

// output growth; input CC(C)(C)OC(=O)N[C@@H](Cc1ccccc1)C(=O)N(Cc1ccccc1)C1(C(=O)NCc2ccccc2)CCN(Cc2ccccc2)CC1 ; system U251 CNS
33.8

// output growth; input Nc1nc(-c2ccccc2)cs1 ; system U251 CNS
98.9

// output growth; input Cc1c(C2=NNC(c3ccc4c(c3)OCO4)C2)[n+]([O-])c2ccccc2[n+]1[O-] (stereo unspecified) ; system U251 CNS
110

// output growth; input Cc1oc2nc[nH]c(=O)c2c1C(=O)/C=C/c1ccc(Cl)cc1Cl ; system U251 CNS
85.1

// output growth; input COc1cc(/C=C/C(=O)c2ccccc2O)ccc1OCCCOc1cc2c(cc1OC)C(=O)N1CCC[C@H]1C=N2 ; system U251 CNS
-74.7

// output growth; input COc1cc2c(cc1OC)C1(C)N(CC2)C(=O)OC1(C)C (stereo unspecified) ; system U251 CNS
101

// output growth; input O=C(CCl)NCCNc1nccc(Nc2ccc(S(=O)(=O)Nc3ccccn3)cc2)n1 ; system U251 CNS
-68.1

// output growth; input COc1cc(Cn2c(SCCC(=O)Nc3ccc(F)cc3)nc3ccccc3c2=O)cc(OC)c1OC ; system U251 CNS
95.2

// output growth; input O=C1CCCCN1CCCCC#Cc1ccccc1C#Cc1ccc([N+](=O)[O-])cc1 ; system U251 CNS
28

// output growth; input CC(C)(C)c1cc(-c2nc3ccc(N4CCN(CCO)CC4)cc3[nH]2)cc(C(C)(C)C)c1O ; system U251 CNS
16

// output growth; input CCOC(=O)c1cc(/C(=N\O)c2cc(OC)c(OC)c(OC)c2)n2cc(C)cc(C)c12 ; system U251 CNS
12.6

// output growth; input O=C(CCCn1c2c(sc3ccccc32)c(=O)n2nnc(-c3ccccc3)c12)NCCc1cnc[nH]1 ; system U251 CNS
-83.2

// output growth; input CCCCCC(=O)OCc1ccccc1 ; system U251 CNS
103

// output growth; input Cn1c(-c2nonc2NC(=O)c2ccc(F)cc2)nc2ccccc21 ; system U251 CNS
108

// output growth; input COc1ccc(-c2cn[nH]c2-c2cc(OC)c3c(c2)OCCO3)cc1 ; system U251 CNS
16.4

// output growth; input C=CC(=O)N[C@H](/C=C/C(=O)OCC)Cc1ccc(-c2cc(Cl)cc(Cl)c2)cc1 ; system U251 CNS
79

// output growth; input FC(F)(F)c1cccc(-n2nnc3cnc(Nc4ccc(N5CCCCC5)cc4)nc32)c1 ; system U251 CNS
62.9

// output growth; input COc1ccc(-c2nnc(COc3ccc(NC(=O)Nc4ccc(Cl)c(C(F)(F)F)c4)cc3F)o2)cc1 ; system U251 CNS
-26.6

// output growth; input COc1ccc(/C=C/C(=O)OCC(=O)NNC(=O)c2ccccc2)cc1OC ; system U251 CNS
97

// output growth; input CCC(c1ccc(OC)cc1)C(CC)c1ccc(OCC[N+](C)(C)C)cc1 (stereo unspecified) ; system U251 CNS
18.9

// output growth; input Cc1ccc(-c2csc3nc(C)c(CCCl)c(=O)n23)cc1 ; system U251 CNS
106

// output growth; input COC(=O)CC/C(C)=N\Nc1ccc([N+](=O)[O-])cc1 ; system U251 CNS
68.4

// output growth; input O=C(CSc1nc(-c2ccc(Cl)cc2)cn1-c1ccc(Cl)cc1)c1ccc(Br)cc1 ; system U251 CNS
37.5

// output growth; input O=C(CNc1c(Cl)cccc1Cl)Nc1ccc(-c2nc3ccccc3s2)cc1 ; system U251 CNS
27.7

// output growth; input CCn1cc(C(=O)O)c(=O)c2cc(F)c(N3CCN(S(=O)(=O)c4ccc(OC)c(OC)c4)CC3)cc21 ; system U251 CNS
106

// output growth; input CN1C(=O)[C@H]2c3c1cccc3[C@@]13NC(=O)O[C@H]1[C@H](CCC3(C)C)C2(C)C ; system U251 CNS
103

// output growth; input CC(C)[C@H](CO)Nc1nc(Nc2ccc(C(=O)NCCNS(=O)(=O)c3cccc4c(N(C)C)cccc34)c(Cl)c2)c2ncn(C(C)C)c2n1 ; system U251 CNS
1.44

// output growth; input COc1cc(OC)c(C(=O)/C=C/c2cccc(C(F)(F)F)c2)c(OC)c1 ; system U251 CNS
9.44

// output growth; input CCOC(=O)CC(C#N)(CC(=O)OCC)C(=O)OCC ; system U251 CNS
94.8

// output growth; input CCN(CC)CCCC(C)N=c1cc(Nc2cc(=NC(C)CCCN(CC)CC)c3cc(OC)ccc3o2)oc2ccc(OC)cc12 (stereo unspecified) ; system U251 CNS
-57.6

// output growth; input Cc1sc(N=Nc2ccc(N(C)C)cc2)[n+]([O-])c1C ; system U251 CNS
99

// output growth; input COc1ccc(-c2cn[nH]c2-c2cc(OC)c3c(c2)OCO3)cc1 ; system U251 CNS
9.27

// output growth; input CCN(CC)CCSc1c2ccc(Cl)cc2nc2ccc(OC)cc12 ; system U251 CNS
93

// output growth; input O=C(O)Cc1ccc2c(c1)Cc1cccnc1O2 ; system U251 CNS
102
